tested on: K-562 leukemia; experiment: NCI tumour cell line growth inhibition, 48 h; in the data active means GI50 below about 0.43 µM; inactive means the rest
Your reply should match one of these outcome classes. active, inactive

Some entries whose results are on file:
COc1cc(-c2nc(-c3nnc(-c4ccc(F)c(Cl)c4)o3)c3ccccn23)cc(OC)c1OC: inactive
COc1ccc(S(=O)(=O)NC2=NCCN2C(=S)SN2CCn3c2nsc3=S)cc1OC: inactive
COc1cc[c]([Sb]([Br])([CH]=C(C)C)([CH]=C(C)C)[CH]=C(C)C)cc1: inactive
Fc1c[c-]c(-c2ccccn2)c(F)c1.[CH3-].[Pt+2].c1ccc([PH+](c2ccccc2)c2ccccn2)cc1: inactive
C[n+]1c2cc(N)ccc2cc2ccc(N)cc21 (tested in a mixture with another compound): active

**Query** How was COc1ccc(N2CCN(CN3CCN(c4ccc(OC)cc4)C3)C2)cc1 classified in this test?
**Result** inactive

**Query** Could you kindly confirm the outcome this assay logged for COc1ccc2[nH]c(-c3ccccc3)c(C=C(C#N)C#N)c2c1 ?
**Result** inactive

* * *

tested on: HOP-62 NSCLC; experiment: NCI tumour cell line growth inhibition, 48 h; in the data active = GI50 below about 0.43 µM; inactive = the rest
Write down one outcome, taken from YES for active, NO for inactive

Before answering, review these 4 worked examples.
O=S(=O)(CC#CCCCOCC#Cc1ccccc1C#CCS(=O)(=O)c1ccccc1)c1ccccc1: NO
Cc1cc(C(=O)N[C@@H](CCC(=O)O)C(=O)O)sc1CC[C@@H]1CNc2nc(N)[nH]c(=O)c2C1: YES
O=C(Nc1ccc(Cl)cc1F)c1cc(F)ccc1O: NO
C[n+]1c2cc(N)ccc2cc2ccc(N)cc21 (tested in a mixture with another compound): NO

Now turn to the next molecule.
**Query** Recorded test outcome, item CCN1/C(=C/C=C/C=C/c2sc3ccccc3[n+]2CC)Sc2ccccc21
**Result** YES

* * *

TGI values by entry
tested on: MALME-3M melanoma; assay: NCI tumour cell line growth inhibition, 48 h

COc1ccccc1-c1ccc2nc(NC(=O)Nc3cc(C(F)(F)F)cc(C(F)(F)F)c3)sc2c1: 4.29 µM
CCOc1ccccc1NC(=O)C(=O)C(C(=O)c1ccc2ccccc2c1)C1OC(=O)c2ccccc21 (stereo not drawn): 30.2 µM

**Query** # get_value(readout='TGI', item= COc1ccc2[nH]c(-c3ccccc3)c(C=C(C#N)C#N)c2c1 )
**Result** > 100 µM

* * *

test system: MCF7 breast; experiment: NCI tumour cell line growth inhibition, 48 h
Collected TGI values appear next to each entry.
Give the quantity in µM, number only.

Worked examples follow.
CN(C)/N=C1\C=C2CC[C@H](O[Si](C)(C)C(C)(C)C)[C@@]2(C)CC1: 31.5
CSC1=Nc2c(c(C)c(-c3ccccc3)n2CCCCl)C2=NC(=O)CN12: 16.5
COc1ccc(-c2nn(-c3ccc(NC(=O)Nc4ccc(Cl)c(Cl)c4)cc3)cc2-c2ccncc2)cc1Cl: 9.34

**Query** Value wanted: TGI (MCF7 breast) of entry NC(=O)c1ccc2nc(-c3ccc(C4(N)CCC4)cc3)c(-c3ccccc3)n2n1
**Result** 17.5

* * *

system: MALME-3M melanoma; assay: NCI tumour cell line growth inhibition, 48 h
READOUT LABEL: TGI (µM)
Give just the numeric value; µM need not be written.

COc1ccc(S(=O)(=O)NC2=NCCN2C(=S)SN2CCn3c2nsc3=S)cc1OC: 43.7

Let us move to another entry and its TGI.
**Query** Report TGI for [C-]#[O+].[C-]#[O+].[Ir].[O-]c1ccc2ccccc2c1N=Nc1ccccc1 please.
**Result** 13
